- system: Solute carrier organic anion transporter family member 1A4 (Rattus norvegicus)
- Sequence (O35913 whole entry): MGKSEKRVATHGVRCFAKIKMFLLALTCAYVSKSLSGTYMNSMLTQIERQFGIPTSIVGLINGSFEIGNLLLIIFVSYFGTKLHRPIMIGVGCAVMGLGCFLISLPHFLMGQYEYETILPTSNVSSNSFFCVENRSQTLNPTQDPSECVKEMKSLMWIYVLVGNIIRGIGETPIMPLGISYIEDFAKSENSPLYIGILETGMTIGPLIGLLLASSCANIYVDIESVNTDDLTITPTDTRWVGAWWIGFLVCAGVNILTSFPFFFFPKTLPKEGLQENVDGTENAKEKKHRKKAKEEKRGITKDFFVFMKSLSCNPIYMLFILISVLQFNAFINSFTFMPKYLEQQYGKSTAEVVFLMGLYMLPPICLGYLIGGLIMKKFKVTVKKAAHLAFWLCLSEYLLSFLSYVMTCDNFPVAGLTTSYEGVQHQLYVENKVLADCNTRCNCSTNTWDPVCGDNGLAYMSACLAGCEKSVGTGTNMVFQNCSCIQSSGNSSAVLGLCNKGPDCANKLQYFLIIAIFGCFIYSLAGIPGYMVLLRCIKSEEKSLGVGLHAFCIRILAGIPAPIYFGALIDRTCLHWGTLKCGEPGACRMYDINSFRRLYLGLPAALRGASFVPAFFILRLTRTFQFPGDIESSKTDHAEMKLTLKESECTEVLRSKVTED
- measurementProtocol: TP_TRANSPORTER: inhibition of E217betaG uptake in Oatp2-expressing LLC-PK1 cells
pKi: −log10 of the molar value.

# substanceSmiles, pKi
records = [
    ("CCCN(CCC)S(=O)(=O)c1ccc(C(=O)O)cc1", 4.14),
]

###

- system: Organic anion transporter 3 (Rattus norvegicus, UniProt Q9R1U7)
- Sequence (Q9R1U7 whole entry): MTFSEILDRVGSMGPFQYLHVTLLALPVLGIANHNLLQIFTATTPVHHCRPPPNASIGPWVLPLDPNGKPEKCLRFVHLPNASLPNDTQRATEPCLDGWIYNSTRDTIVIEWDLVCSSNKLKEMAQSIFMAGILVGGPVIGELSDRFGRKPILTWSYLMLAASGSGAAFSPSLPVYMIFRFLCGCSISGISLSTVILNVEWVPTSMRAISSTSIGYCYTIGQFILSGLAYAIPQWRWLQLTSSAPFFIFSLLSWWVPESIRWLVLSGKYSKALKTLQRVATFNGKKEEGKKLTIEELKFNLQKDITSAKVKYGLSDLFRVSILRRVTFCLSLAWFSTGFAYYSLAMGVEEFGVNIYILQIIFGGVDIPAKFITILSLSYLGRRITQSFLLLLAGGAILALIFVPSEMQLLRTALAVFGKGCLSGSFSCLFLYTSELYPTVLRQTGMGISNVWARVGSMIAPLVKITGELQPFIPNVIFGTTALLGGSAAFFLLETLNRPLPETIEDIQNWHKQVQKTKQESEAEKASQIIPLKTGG
- measurementProtocol: TP_TRANSPORTER: inhibition of E217betaG uptake in Oat3-expressing LLC-PK1 cells
pKi: −log10 of the molar value.
measuredQuantity: pKi

# substanceSmiles, system, measuredQuantity, recordedValue
rows = [
    ("Nc1ccc(C(=O)NCC(=O)O)cc1", "Organic anion transporter 3 (Rattus norvegicus, UniProt Q9R1U7)", "pKi", 3.52),
    ("CCCN(CCC)S(=O)(=O)c1ccc(C(=O)O)cc1", "Organic anion transporter 3 (Rattus norvegicus, UniProt Q9R1U7)", "pKi", 4.70),
]
